Tested on: Avena sterilis
Test: Herbicidal activity against Avena sterilis accession P14 assessed as weed survival at 16 times field recommended herbicide dose
Assay type: functional
Entries and their measured Survival follow.
quantity.kind: Survival (%)

>>> observed_measurement("CCc1cc(C)cc(CC)c1-c1c(OC(=O)C(C)(C)C)n2n(c1=O)CCOCC2")
0
>>> observed_measurement("CCOC(=O)[C@@H](C)Oc1ccc(Oc2nc3ccc(Cl)cc3o2)cc1")
20
>>> observed_measurement("COCc1cnc(C2=NC(C)(C(C)C)C(=O)N2)c(C(=O)O)c1 (stereo unspecified)")
0
>>> observed_measurement("CCO/N=C(\\CC)C1=C(O)CC(c2c(C)cc(C)cc2C)CC1=O (stereo unspecified)")
0
>>> observed_measurement("C#CCOC(=O)[C@@H](C)Oc1ccc(Oc2ncc(Cl)cc2F)cc1")
77
>>> observed_measurement("COC(=O)C(C)Oc1ccc(Oc2ccc(Cl)cc2Cl)cc1 (stereo unspecified)")
50

----------
Test system: Avena sterilis
Experiment: Herbicidal activity against Avena sterilis accession P21S assessed as weed survival at 1/8 times field recommended herbicide dose
Type: functional
Please enter TRUE where Survival is greater than or equal to 90%, and FALSE where it is lower.

>>> group_label("CCOC(=O)[C@@H](C)Oc1ccc(Oc2nc3ccc(Cl)cc3o2)cc1")
"FALSE"
>>> group_label("CCO/N=C(\\CC)C1=C(O)CC(c2c(C)cc(C)cc2C)CC1=O (stereo unspecified)")
"FALSE"
>>> group_label("COCc1cnc(C2=NC(C)(C(C)C)C(=O)N2)c(C(=O)O)c1 (stereo unspecified)")
"FALSE"
>>> group_label("CCc1cc(C)cc(CC)c1-c1c(OC(=O)C(C)(C)C)n2n(c1=O)CCOCC2")
"FALSE"
>>> group_label("COC(=O)C(C)Oc1ccc(Oc2ccc(Cl)cc2Cl)cc1 (stereo unspecified)")
"TRUE"
>>> group_label("C#CCOC(=O)[C@@H](C)Oc1ccc(Oc2ncc(Cl)cc2F)cc1")
"FALSE"

----------
Tested on: Avena sterilis
Experiment: Herbicidal activity against Avena sterilis accession P07 assessed as weed survival at 1 times field recommended herbicide dose
Format: functional
Entries and their measured Survival follow.
quantity.kind: Survival (%)

>>> observed_measurement("C#CCOC(=O)[C@@H](C)Oc1ccc(Oc2ncc(Cl)cc2F)cc1 [CLODINAFOP PROPARGYL]")
13
>>> observed_measurement("COCc1cnc(C2=NC(C)(C(C)C)C(=O)N2)c(C(=O)O)c1 (stereo unspecified) [IMAZAMOX]")
0
>>> observed_measurement("CCc1cc(C)cc(CC)c1-c1c(OC(=O)C(C)(C)C)n2n(c1=O)CCOCC2 [PINOXADEN]")
0
>>> observed_measurement("COC(=O)C(C)Oc1ccc(Oc2ccc(Cl)cc2Cl)cc1 (stereo unspecified) [DICLOFOP-METHYL]")
100
>>> observed_measurement("CCO/N=C(\\CC)C1=C(O)CC(c2c(C)cc(C)cc2C)CC1=O (stereo unspecified) [TRALKOXYDIM]")
23
>>> observed_measurement("CCOC(=O)[C@@H](C)Oc1ccc(Oc2nc3ccc(Cl)cc3o2)cc1 [FENOXAPROP-P-ETHYL]")
97

----------
System: Avena sterilis
Assay: Herbicidal activity against Avena sterilis accession P22 assessed as weed survival at 32 times field recommended herbicide dose
Format: functional
Entries and their measured Survival follow.
quantity.kind: Survival (%)

>>> observed_measurement("C#CCOC(=O)[C@@H](C)Oc1ccc(Oc2ncc(Cl)cc2F)cc1")
0
>>> observed_measurement("CCO/N=C(\\CC)C1=C(O)CC(c2c(C)cc(C)cc2C)CC1=O (stereo unspecified)")
0
>>> observed_measurement("CCOC(=O)[C@@H](C)Oc1ccc(Oc2nc3ccc(Cl)cc3o2)cc1")
0
>>> observed_measurement("CCc1cc(C)cc(CC)c1-c1c(OC(=O)C(C)(C)C)n2n(c1=O)CCOCC2")
0
>>> observed_measurement("COCc1cnc(C2=NC(C)(C(C)C)C(=O)N2)c(C(=O)O)c1 (stereo unspecified)")
0
>>> observed_measurement("COC(=O)C(C)Oc1ccc(Oc2ccc(Cl)cc2Cl)cc1 (stereo unspecified)")
20

----------
Entries and their measured Ratio follow.
Tested on: Avena sterilis
Assay: Resistance index, ratio of GR50 for Avena sterilis accession P04 to GR50 for Avena sterilis accession P10S
Format: functional
quantity.kind: Ratio

>>> observed_measurement("CCc1cc(C)cc(CC)c1-c1c(OC(=O)C(C)(C)C)n2n(c1=O)CCOCC2")
18
>>> observed_measurement("CCO/N=C(\\CC)C1=C(O)CC(c2c(C)cc(C)cc2C)CC1=O (stereo not given)")
266
>>> observed_measurement("CCOC(=O)[C@@H](C)Oc1ccc(Oc2nc3ccc(Cl)cc3o2)cc1")
59
>>> observed_measurement("COC(=O)C(C)Oc1ccc(Oc2ccc(Cl)cc2Cl)cc1 (stereo not given)")
28

----------
Test system: Avena sterilis
Test: Herbicidal activity against Avena sterilis accession P20 assessed as induction of weed mortality
Type: functional
Entries and their measured GR50 follow.
quantity.kind: GR50 (gAi/ha)

>>> observed_measurement("CCO/N=C(\\CC)C1=C(O)CC(c2c(C)cc(C)cc2C)CC1=O (stereo unspecified)")
2916
>>> observed_measurement("C#CCOC(=O)[C@@H](C)Oc1ccc(Oc2ncc(Cl)cc2F)cc1")
508
>>> observed_measurement("CCc1cc(C)cc(CC)c1-c1c(OC(=O)C(C)(C)C)n2n(c1=O)CCOCC2")
42

----------
System: Avena sterilis
Test: Resistance index, ratio of GR50 for Avena sterilis accession P15 to GR50 for Avena sterilis accession P10S
Type: functional
quantity.kind: Ratio

>>> observed_measurement("CCO/N=C(\\CC)C1=C(O)CC(c2c(C)cc(C)cc2C)CC1=O (centres undefined)")
26
>>> observed_measurement("CCOC(=O)[C@@H](C)Oc1ccc(Oc2nc3ccc(Cl)cc3o2)cc1")
92

----------
Entries and their measured Survival follow.
Test system: Avena sterilis
Test: Herbicidal activity against Avena sterilis accession P03 assessed as weed survival at 16 times field recommended herbicide dose
Assay type: functional
quantity.kind: Survival

>>> observed_measurement("CCO/N=C(\\CC)C1=C(O)CC(c2c(C)cc(C)cc2C)CC1=O (centres undefined) [TRALKOXYDIM]")
"20%"
>>> observed_measurement("COCc1cnc(C2=NC(C)(C(C)C)C(=O)N2)c(C(=O)O)c1 (centres undefined) [IMAZAMOX]")
"0%"
>>> observed_measurement("CCOC(=O)[C@@H](C)Oc1ccc(Oc2nc3ccc(Cl)cc3o2)cc1 [FENOXAPROP-P-ETHYL]")
"40%"
>>> observed_measurement("C#CCOC(=O)[C@@H](C)Oc1ccc(Oc2ncc(Cl)cc2F)cc1 [CLODINAFOP PROPARGYL]")
"87%"

----------
Entries and their measured GR50 follow.
Test system: Avena sterilis
Test: Herbicidal activity against Avena sterilis accession P20 assessed as induction of weed mortality
Type: functional
quantity.kind: GR50

>>> observed_measurement("COCc1cnc(C2=NC(C)(C(C)C)C(=O)N2)c(C(=O)O)c1 (stereo not drawn) [IMAZAMOX]")
"<50 gAi/ha"
>>> observed_measurement("CCOC(=O)[C@@H](C)Oc1ccc(Oc2nc3ccc(Cl)cc3o2)cc1 [FENOXAPROP-P-ETHYL]")
">2640 gAi/ha"
>>> observed_measurement("COC(=O)C(C)Oc1ccc(Oc2ccc(Cl)cc2Cl)cc1 (stereo not drawn) [DICLOFOP-METHYL]")
">22740 gAi/ha"
